Each recorded value in this set is attributed to patent US20250027068.

Biological target: pooled human IgG
measured.quantity: Enzyme Activity Endpoint Assay (purified): Fc (ng/µL)
Kindly provide the numeric value in ng/µL only, without the unit symbol.

Recorded result, PRT-127 (protein) MRNATEAYAKEVPHQITSVWTKGVTPLTPEQFRYNNEDVIHAPYLANQGWYDITKTFNGKDNLLCGAATAGNMLHWWFDQNKTEIEAYLKKHPEKQKIIFNNQELFDLKAAIDTKDSQTNSQLFNYFRDKAFPNLSARQLGVMPDLVLDMFINGYYLNVFKTQSTDVNRPYQDKDKRGGIFDAVFTRGDQTTLLTARHDLKNKGLNEISTLIKQELTEGKALALSHTYANVSISHVINLWGADFNAEGNLEAIYVTDSDSNASIGMKKYFVGVNAHGKVAISAKKIEGENIGAQVLGLFTLSSGKDIWQKLS , Enzyme Activity Endpoint Assay (purified): Fc: 140
